Target sequence: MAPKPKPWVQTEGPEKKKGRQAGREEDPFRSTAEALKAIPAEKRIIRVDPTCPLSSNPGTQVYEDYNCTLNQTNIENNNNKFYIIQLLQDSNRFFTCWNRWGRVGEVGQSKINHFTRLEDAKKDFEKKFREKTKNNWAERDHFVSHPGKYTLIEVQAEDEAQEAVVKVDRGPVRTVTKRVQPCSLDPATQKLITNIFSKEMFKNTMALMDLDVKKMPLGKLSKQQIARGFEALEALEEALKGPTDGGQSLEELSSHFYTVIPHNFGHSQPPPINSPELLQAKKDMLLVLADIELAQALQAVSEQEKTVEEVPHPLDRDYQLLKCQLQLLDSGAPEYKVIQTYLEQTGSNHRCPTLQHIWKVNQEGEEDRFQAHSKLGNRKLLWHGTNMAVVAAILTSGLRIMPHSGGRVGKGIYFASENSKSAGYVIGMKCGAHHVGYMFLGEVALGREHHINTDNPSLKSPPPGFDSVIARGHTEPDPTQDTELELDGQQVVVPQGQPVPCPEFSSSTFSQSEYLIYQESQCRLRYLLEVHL
endpoint-label: ΔTm (°C)

O=C(CCc1nc2ccccc2c(=O)[nH]1)NC1CCCc2ccccc21 (configuration not stated)	2.28
O=C(/C=C/c1nc2ccccc2c(=O)[nH]1)N[C@H](CO)Cc1ccccc1	6.25
O=C(CCc1nc2ccccc2c(=O)[nH]1)NCc1ccccc1O	6.31
O=C(CCc1nc2ccccc2c(=O)[nH]1)NCCc1ccccc1	6.23
O=C(CCCc1nc2ccccc2c(=O)[nH]1)N[C@H](CO)c1ccccc1	3.22
O=C(CCCc1nc2ccccc2c(=O)[nH]1)N[C@@H]1CCc2ccccc21	3.46
CC(C)(C)CC(NC(=O)CCc1nc2ccccc2c(=O)[nH]1)c1ccccc1 (racemic)	5.96

1 = O=C(CCc1nc2ccccc2c(=O)[nH]1)NCc1ccccc1Cl
2 = O=C(NCc1ccccc1)NCc1nc2ccccc2c(=O)[nH]1
3 = O=C(CCc1nc2ccccc2c(=O)[nH]1)N[C@@H](Cc1ccccc1)C(=O)O
4 = C[C@H](NC(=O)CCc1nc2ccccc2c(=O)[nH]1)c1cccc(C(F)(F)F)c1
5 = O=C(CCCc1nc2ccccc2c(=O)[nH]1)NC(c1ccccc1)c1ccccc1
Endpoint returns the given compounds ordered by ascending ΔTm. Hello, could you send the labels back in the order asked? Thank you.
5, 4, 3, 2, 1
